- SYSTEM: T1, HER2-ECD-His (human, UniProt P04626 23-652)
- T1 construct: extracellular domain; also called HER2-His; HER2-ECD-His protein; not shown: His tag
- ASSAY_SUMMARY: SPR (Biacore, CM5), IgG captured by anti-human IgG, HER2-ECD-His as analyte
EXPERIMENTAL_READOUT: koff (s⁻¹)
The reply should contain only the number, in s⁻¹.

binder="hz39D2.23 (antibody, human IgG1, kappa, V domains shown) VH: QVQLVQSGSELKKPGASVKVSCKASGYTFTNYGVNWVRQAPGQGLEWMGWINTHTGEPTYAEEFKGRFVFSLDTSVSTAYLQISSLKAEDTAVYYCARDEYYVRVDYWGQGTTVTVSS VL: DIQMTQSPSSLSASVGDRVTITCKASQDINSYLSWFQQKPGKAPKTLIYRANRLVDGVPSRFSGSGSGQDYTLTISSLQPEDFATYYCLQLDEFPWTFGQGTKVEIKR" measurement_unit=s⁻¹ reported_value=0.0002
binder="hz39D2.14 (antibody, V domains shown) VH: QVQLVQSGSELKKPGASVKVSCKASGYTFTNYGVNWVRQAPGQGLEWMGWINTHTGEPTYAEEFKGRFVFSLDTSVSTAYLQISSLKAEDTAVYYCARDEYYVRTDYWGQGTTVTVSS VL: DIQMTQSPSSLSASVGDRVTITCKASQDINSYLSWFQQKPGKAPKTLIYRANRLVDGVPSRFSGSGSGQDYTLTISSLQPEDFATYYCLQYDEFPWTFGQGTKVEIK" measurement_unit=s⁻¹ reported_value=0.0003

In: Entry under review: hz39D2 (antibody, V domains shown, Humanized antibody, captured as IgG by anti-human IgG in SPR; also called humanized 39D2 antibody) VH: QVQLVQSGSELKKPGASVKVSCKASGYTFTNYGVNWVRQAPGQGLEWMGWINTHTGEPTYAEEFKGRFVFSLDTSVSTAYLQISSLKAEDTAVYYCARDDYYVRVDYWGQGTTVTVSS VL: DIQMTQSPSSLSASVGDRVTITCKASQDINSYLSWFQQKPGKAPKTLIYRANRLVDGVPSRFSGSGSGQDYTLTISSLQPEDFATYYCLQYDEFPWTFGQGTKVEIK . Reported koff?
Out: 0.0025

In: Entry under review: hz39D2.22 (antibody, V domains shown) VH: QVQLVQSGSELKKPGASVKVSCKASGYTFTNYGVNWVRQAPGQGLEWMGWINTHTGEPTYAEEFKGRFVFSLDTSVSTAYLQISSLKAEDTAVYYCARDEYYVRVDYWGQGTTVTVSS VL: DIQMTQSPSSLSASVGDRVTITCKASQDINSYLSWFQQKPGKAPKTLIYRANRLVDGVPSRFSGSGSGQDYTLTISSLQPEDFATYYCLELDEFPWTFGQGTKVEIK . Reported koff?
Out: 0.00016
